I'd be grateful if you could share measured activation for these entries.
Molecular target: Cellular tumor antigen p53 (Homo sapiens)
Experiment: Primary qHTS for small molecule compounds that upregulate eGFP-tagged delta133p53alpha (in N-terminal) cells. (AID 2060322);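 also: cells pre-induced with doxycycline then dosed without doxycycline; series mostly up to about 56 µM; 0% = DMSO vehicle and 100% = reference activator; nearly all actives have a fitted effect of over 75% in size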
Details: NCI-H358 eGFP-delta133p53alpha fluorescence, 24 h; active compounds read high
Excerpt: Assay Development and Screening Technology National Center for Advancing Translational Sciences (NCATS), National Institute of Health (NIH), Rockville, Maryland Cellular senescence (CS) is one of the hallmarks of aging and age-related diseases. […] Here we report the development and validation of a cell-based quantitative high throughput screening (qHTS) assay in 1,536-well format. […]
Records with an inconclusive call do not appear.
Answer format: numeric, % implied, no suffix.

Q. Supply measured activation of "CC1=CC(=O)[C@]2(O[C@@H]3O[C@@H](C)[C@H](O)[C@@H](O)[C@H]3O)C=CO[C@@H](O[C@@H]3O[C@H](CO)[C@@H](O)[C@H](O)[C@H]3O)[C@H]12" in your reply.
A. -18.3

Q. Report measured activation; entry is "O=C(O)c1ccc(O)c2ncc(N3CCCN(CCc4cccc5ccccc45)CC3)cc12"
A. 21.2

Q. Item "COc1cc(Cc2cnc(N)nc2N)c(C(C)C)cc1OC" : provide activation
A. -15.2

Q. Give the reported activation for this molecule. "COc1cc(C(=O)OC[C@H]2O[C@@H](Oc3ccccc3/C=C/C(=O)O)[C@H](O)[C@@H](O)[C@@H]2O)cc(OC)c1OC"
A. 1.53

Q. Report measured activation; entry is "CCCC(=O)O[C@@H]1[C@@H]2[C@@H](OC(C)=O)[C@]3(C)C(=O)[C@H]4[C@@H](OC(C)=O)C(C)(C)C[C@H]4[C@]3(C)C(=O)[C@@]2(OC(C)=O)C[C@@H]1C"
A. -10.7

Q. For the molecule CC12CCC3c4ccc(O)cc4CCC3C1CC(OC1OC(C(=O)O)C(O)C(O)C1O)C2O (stereo not drawn) , give its reported activation.
A. -10.3

Q. Fill in reported activation for this entry: "Clc1ccc2c(c1)C1=NCCN1c1c(-c3noc(C4CC4)n3)ncn1-2"
A. -0.477

Q. Quickly give me recorded activation for "O=S(=O)(Cc1ccccc1)Nc1ccc(-c2ccc3c(cnn3-c3ccc(F)cc3)c2)c(C(F)(F)F)c1"
A. -1.91

Q. Specify activation for "O=C(/C=C/c1ccccc1)OC[C@H]1O[C@@H](OC(=O)c2cc(O)c(O)c(O)c2)[C@H](O)[C@@H](O)[C@@H]1O" and stop.
A. -19.1

Q. Check the records and state activation for "C1=Cc2ccccc2C(=C2CCN(CCCCc3nn[nH]n3)CC2)c2ccccc21"
A. -3

Q. Supply measured activation of "CCn1c(-c2nonc2N)nc2cnc(Oc3cccc(NC(=O)c4ccc(OCCN5CCOCC5)cc4)c3)cc21" in your reply.
A. -20.5

Q. Identify measured activation corresponding to CCCC(C(=O)O)c1c(C)nc2ccc(Cl)cc2c1-c1ccccc1 (stereo not drawn)
A. -1.91

Q. Note down activation recorded for "Cc1cc(CC(=O)O)c(C)n1-c1ccc(Cl)cc1"
A. 5.86

Q. Complete the entry with activation for OCC(O)C(O)C(O)CO (stereo not drawn)
A. 28.5

Q. Identify measured activation associated with "CO[C@]1(NC(=O)CSC(F)F)C(=O)N2C(C(=O)O)=C(CSc3nnnn3CCO)CO[C@H]21"
A. -7.53

Q. Respond only with activation recorded for "O=C(O)CCc1nc2ccccc2[nH]1"
A. 0.565

Q. Please report activation for the following molecule: "Cc1ccc(S(=O)(=O)NCc2ccc(C(=O)NCCN(Cc3ccccc3)C(C)C)cc2)cc1"
A. 3.67

Q. For the molecule "CO[C@H]1O[C@@H]2O[C@]3(C)CC[C@@H]4[C@@H](C)CC[C@H]([C@H]1C)[C@]24OO3" , give its measured activation value.
A. -13
